Experimental system: BCL-xL (Homo sapiens, UniProt Q07817)
Construct: endogenous in cells
Sequence (Q07817 whole entry): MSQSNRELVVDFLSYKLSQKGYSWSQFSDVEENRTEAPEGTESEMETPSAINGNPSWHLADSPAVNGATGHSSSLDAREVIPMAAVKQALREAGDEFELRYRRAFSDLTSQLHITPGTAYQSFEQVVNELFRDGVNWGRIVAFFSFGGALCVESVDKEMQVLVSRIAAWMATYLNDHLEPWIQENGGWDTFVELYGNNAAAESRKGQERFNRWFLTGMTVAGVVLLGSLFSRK
Procedure text: BCL-xL degradation by immunoblot in 293T cells
Assay type: cell-based
Condition context: HEK-293T
Assay metric: Dmax

Previously resolved entries follow.
Compound | Experimental system | Assay metric | Result
Cc1ncsc1-c1ccc([C@H](C)NC(=O)[C@@H]2C[C@@H](O)CN2C(=O)[C@@H](NC(=O)CCCCCCCCC(=O)N2CCN(CC3(C)CCC(c4ccc(Cl)cc4)=C(CN4CCN(c5ccc(C(=O)NS(=O)(=O)c6ccc(N[C@H](CCN7CCOCC7)CSc7ccccc7)c(S(=O)(=O)C(F)(F)F)c6)cc5)CC4)C3)CC2)C(C)(C)C)cc1 (stereo partly drawn) | BCL-xL (Homo sapiens, UniProt Q07817) | Dmax | 81%
Cc1ncsc1-c1ccc([C@H](C)NC(=O)[C@@H]2C[C@@H](O)CN2C(=O)[C@@H](NC(=O)CCCCC(=O)N2CCN(CC3(C)CCC(c4ccc(Cl)cc4)=C(CN4CCN(c5ccc(C(=O)NS(=O)(=O)c6ccc(N[C@H](CCN7CCOCC7)CSc7ccccc7)c(S(=O)(=O)C(F)(F)F)c6)cc5)CC4)C3)CC2)C(C)(C)C)cc1 (stereo partly drawn) | BCL-xL (Homo sapiens, UniProt Q07817) | Dmax | 91%

Now take the following compound into account.
Provide value of Dmax for this record tested with BCL-xL (Homo sapiens, UniProt Q07817): Cc1ncsc1-c1ccc([C@H](C)NC(=O)[C@@H]2C[C@@H](O)CN2C(=O)[C@@H](NC(=O)CCCCCC(=O)N2CCN(CC3(C)CCC(c4ccc(Cl)cc4)=C(CN4CCN(c5ccc(C(=O)NS(=O)(=O)c6ccc(N[C@H](CCN7CCOCC7)CSc7ccccc7)c(S(=O)(=O)C(F)(F)F)c6)cc5)CC4)C3)CC2)C(C)(C)C)cc1 (stereo partly drawn)
85%
